IC50 reference
# System: HIF-1α
# experiment_summary: HIF-1α activity assay (NIH/3T3-EPO-Luc luciferase reporter, DFX-induced)
# Assay type: cell-based
# run_conditions: 6 h, read-out: inhibition of DFX-induced activation of EPO-Luc (HIF-1α stabilization) IC50
measurement_type: IC50

                                   compound  measurement_target  measurement_type  value_measured
0  CCCCCC1=NN(C(=O)CCOC(C)=O)OC(CCCCC)C1 (centres unmarked)              HIF-1α              IC50         5.07 nM
1  CCCCCC1=NN(C(=O)CCOC(=O)CCC(=O)O)OC(CCCCC)C1 (centres unmarked)              HIF-1α              IC50         12.4 nM

----------
IC50 reference
# measurement_target: tyrosinase (Mus musculus, UniProt P11344)
# Construct: To measure the tyrosinase activity of the cells, the B16-F10 cells treated for 3 days; endogenous in cells
# Sequence (P11344 19-533): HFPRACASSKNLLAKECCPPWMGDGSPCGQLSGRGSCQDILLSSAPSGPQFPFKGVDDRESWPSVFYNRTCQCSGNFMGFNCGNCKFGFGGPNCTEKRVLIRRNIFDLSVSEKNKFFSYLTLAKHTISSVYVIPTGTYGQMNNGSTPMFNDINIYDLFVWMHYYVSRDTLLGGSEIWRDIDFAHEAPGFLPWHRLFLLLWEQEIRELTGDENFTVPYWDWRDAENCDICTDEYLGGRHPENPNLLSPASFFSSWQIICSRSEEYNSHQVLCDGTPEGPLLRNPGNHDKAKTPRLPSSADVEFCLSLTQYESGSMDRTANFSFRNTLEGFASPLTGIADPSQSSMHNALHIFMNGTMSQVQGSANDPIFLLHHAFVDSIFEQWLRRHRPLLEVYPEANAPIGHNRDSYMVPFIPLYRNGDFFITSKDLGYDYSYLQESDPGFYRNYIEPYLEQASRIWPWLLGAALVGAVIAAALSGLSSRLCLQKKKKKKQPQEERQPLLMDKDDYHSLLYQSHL
# experiment_summary: Tyrosinase activity assay in B16-F10 melanoma cells
# run_conditions: 72 h treatment, read-out: inhibition of melanin synthesis (tyrosinase activity assay) IC50
measurement_type: IC50 (nM)

In [3]: df
Out[3]:
                                   molecule  measurement_type  unit_tag  value_measured
0  CCCCCC1=NN(C(=O)CCOC(C)=O)OC(CCCCC)C1 (centres unmarked)              IC50        nM            8.64
1  CCCCCC1=NN(C(=O)CCOC(=O)CCC(=O)O)OC(CCCCC)C1 (centres unmarked)              IC50        nM              18

----------
pIC50 reference
# Tested on: THP-1 cells
# experiment_summary: Cellular antioxidant activity assay (TBHP-induced ROS, DCFH-DA) in THP-1 cells
# Type: cell-based
# run_conditions: Homo sapiens, THP-1 cell, 0.4 mM TBHP, read-out: antioxidant activity IC50 (TBHP-induced intracellular ROS)
pIC50: −log10 of the molar value.
measurement_type: pIC50

                                   compound  value_measured
0  CCCCCC1=NN(C(=O)CCOC(=O)CCC(=O)O)OC(CCCCC)C1 (centres unmarked)            8.09
1  CCCCCC1=NN(C(=O)CCOC(C)=O)OC(CCCCC)C1 (centres unmarked)            8.46
